src = the supplement of paper PMC10567573

B1: KCNK9 (parent)
chain: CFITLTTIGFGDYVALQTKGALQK

# Variants of: B1
# Method: protein stability index of a GFP-peptide fusion (GPS, HEK-293T) (PSI 1-6); higher = more stable;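 also: lentivirally expressed fusions sorted by FACS into six bins by GFP to DsRed ratio, PSI derived from sequencing read proportions per bin multiplied by bin number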
# Condition Set: c terminus: a fixed tail appended
protein stability index vs 3: at or above is true (1), below is false (0).

>>> category("G20N")
"true (1)"
>>> category("C1L")
"true (1)"
>>> category("Q23I")
"true (1)"

Enquiry: Hello, I need to know if `I8Q` has measured protein stability index not below 3. Thanks!
Return: true (1)

Enquiry: Hello, I need to know if `C1I` has measured protein stability index not below 3. Thanks!
Return: true (1)
